These measurements were taken from the supplement of paper PMC6555819.

system: PPARg:RXRa DBDmut IVT, anti-RXR (DBD mutation: RXRa K156A/R161A, NR concentration 270 nM, RXRa partner concentration 90 nM); experiment: PBM binding z-score (relative to random genomic background probes); higher = stronger binding; sequences stand for … in GC…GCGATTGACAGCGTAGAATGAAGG
Would you mind telling me the reported PBM binding z-score of each entry?
Give bare numbers.

INSERT INTO assay_data (ordered_residues, measured_result) VALUES
  ('CCTTACGCGTCACGAGGTTATAGCACGACGAGCG', 0.147),
  ('TCATATAGGTAAGAGGTGAAAGTCGGTGTGGTAA', 4.67),
  ('TCAGACACGTGAAGGTAACTCAGGTACGCAGTCG', 2.01),
  ('GCATATAGGTAATACAAGGTGCAAGTCCGATTGT', 3.88),
  ('GCTTACGGGTCAAAGGTTATCGCATGAATAGAAT', 5.17);

For each of the items listed, what is its PBM binding z-score?
1. AATACAGGGTCACTAGGCAAGAGTAGGTACGAAT
2. CTCGAAAGGTAGGTTGAGGTGAGTATACGGATAA
3. CAGACTAGGTCAGGGCCAGTATAGGAGGAACGTT
4. CCGCGTAGGTTATGGGGCATTCAGGCAACGGTGA
5. ATCTCTAGGTAAGACTCAGTTCATTGAAGAACGC
6. CCTTACGGGTCAAGGTTACAGCACGGGTGGTACG
7. GCTTACGGGTCAAAGGTTATAGCATGAATAGAAT

Out:
1. 3.19
2. -0.151
3. 5.95
4. 0.695
5. 2.32
6. 2.05
7. 4.91

====

tested on: VDR homodimer (NR concentration 270 nM); test: PBM binding z-score (relative to random genomic background probes); higher = stronger binding; sequences stand for … in GC…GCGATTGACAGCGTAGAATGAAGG
TEST READOUT: PBM binding z-score
Numbers only.

Some solved cases for reference:
INSERT INTO measurements (ordered_residues, target_under_test, test_readout, measured_result) VALUES
  ('CCTATTAGTTGACCATAAGGGCAACCCAAGCTCG', 'VDR homodimer (NR concentration 270 nM)', 'PBM binding z-score', 1.28),
  ('CATACAAGGTCAGCTAGGCCAGAGTAGGGACGGC', 'VDR homodimer (NR concentration 270 nM)', 'PBM binding z-score', 1.65),
  ('CCTACTGGACCATCAGGTCATTGATATCAACGTT', 'VDR homodimer (NR concentration 270 nM)', 'PBM binding z-score', 2.38),
  ('CGTCCAAGGTAAAAGGTCAGTGAAGAGATGACGG', 'VDR homodimer (NR concentration 270 nM)', 'PBM binding z-score', 0.435),
  ('GCTTGTAGATCAAGGTTAAGACAGACTAAGCTAA', 'VDR homodimer (NR concentration 270 nM)', 'PBM binding z-score', 0.0668);

For each of the items listed, what is its PBM binding z-score?
1. AGTCAAAATTCATCTAGGTAACGTAAGATATGCT
2. TGTCAAAGTTCAAAGGTAACCTAAGTATCCACAC
3. CCTCGGAAGACAACAGGAGGTCAGAGCTGCCAGA
4. CCGACTGGGGCAGAAAGGTTACCGTACCATCCGG
5. TCATATAGCTAAAGGTGAAAGTCGAACGATATGA
6. ATATGTAGGTTACATCCGCGTCATTCAGGCTATG
7. CCTACTGGGCCAGAGGTCATTGATTCCAATGCTC

Out:
[-0.296, 3.92, 1.28, -0.155, -0.396, 0.163, 3.61]

====

system: PXR:RXRa (NR concentration 270 nM, RXRa partner concentration 90 nM); assay: PBM binding z-score (relative to random genomic background probes); higher = stronger binding; sequences stand for … in GC…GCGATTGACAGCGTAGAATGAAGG
Would you mind telling me the reported PBM binding z-score of each entry?

Some solved cases for reference:
INSERT INTO results (ordered_residues, measured_result) VALUES
  ('TCATATAGGTAAAAGGTGAAGGTCGGTGTGGTAA', 2.15),
  ('TAGCCTAGGTCATGGGGGCCAGTATAGTGTCGGC', 3.01),
  ('ATTTGTAGGTTAAGGGTCATTCAGGTTGGTTCGC', 5.87),
  ('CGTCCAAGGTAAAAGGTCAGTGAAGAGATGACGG', 3.83),
  ('TCGAGTAAGTTACCAATGGGGCATTCAGCTTTCT', 0.0133),
  ('GCGAGTGGGGCAAAGCAGGTTACCATAAGGTTGG', 0.562),
  ('TCAGACCGGTGAAGGTAACTCAGGTACGCAGTCG', 0.238),
  ('CCTGCTAGGTCAATGGTCAGCCAAAGCAGCTCGC', 0.76);

For each of the items listed, what is its PBM binding z-score?
1. TAGCCTAGGTCATTCAGGGCCCAGTATAGAAAGC
2. CCGACTGGGGCAGAAAGGTTATCATACCATCCGG
3. ACTCGGAGGACATAGGTCAGAGCTACGCCAGTGA
4. TAGGCTAGGTCATGCGGGCCAGTATAGTGTCGGC
5. TCTTGTAGATCAATTGAGGTTAAGAAAGTGCGCT

Out:
1. 1.88
2. 0.873
3. 1.15
4. 1.21
5. 2.84

For each of the items listed, what is its PBM binding z-score?
1. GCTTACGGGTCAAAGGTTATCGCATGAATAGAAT
2. CCTTACGGGTCACTGACAGGTTATAGCATTTGGA
3. ATCTCTAGGTTACCAAGTTCAGTGAATGCCGAAC
4. TGAATGAGGTTATAAGGTCAGGGAACGTTGCAAA
5. TCTAGTTGGTCCAAGGTCACACACTCGAAATGCG
6. CCTAGCAGGCCAATCCGGGTCACTCAAGGCTTGA

Out:
1. 6.19
2. 3.81
3. 3.34
4. 4.17
5. 4.21
6. 2.79

For each of the items listed, what is its PBM binding z-score?
1. ATCTCTAGGTAAAGTTTAGTGAAAGATCGATAGA
2. TCATATAGATAAACAGGTGAAAGTCCGTAAGTTA
3. GCTACTTGGTCAGTAAAAGGTCACACACCGGTCG
4. CTAACAAGGTGAACAAGGTCGTTGATTACTATTC
5. GGAACGAGGGCATTCGGGTTGATAGCATGGCGAT
6. GCTGCCAGGTCAACTGATGGTCAGCTAAAGCTCG

Out:
1. 0.187
2. 1.07
3. 5.09
4. 2.67
5. 3.69
6. 2.76

For each of the items listed, what is its PBM binding z-score?
1. CCGAGCAGGCCAGGGTCACTCAAGCATTTCGCTT
2. TAGCCTAGGCCATGCGGGCCAGTATAGTGTCGGC

Out:
[2.78, -0.956]

====

test system: PPARg:RXRa (NR concentration 180 nM, RXRa partner concentration 90 nM); assay: PBM binding z-score (relative to random genomic background probes); higher = stronger binding; sequences stand for … in GC…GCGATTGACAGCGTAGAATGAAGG
TEST READOUT: PBM binding z-score

INSERT INTO assay_data (ordered_residues, measured_result) VALUES
  ('ATATGTAAGTTACATCCGGGTCATTCAGGCTATG', 1.41),
  ('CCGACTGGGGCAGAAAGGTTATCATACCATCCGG', 1.7),
  ('CGTCCAAGGTCATAGGTGGTCAGTGAAGACAGAT', 5.44),
  ('CAAACTAGGTCAAGGTCAACGTCGGTTTGTGCCA', 9.59);

For each of the items listed, what is its PBM binding z-score?
1. ACATACAGGTGAGTGAAGGTAACTCAGCTGGACG
2. TCATATAGGTAAATGCCAGGTGAAAGTCCGATCT
3. CCTACTGGGCCACAAAAGGTCATTGATTCAGTGA
4. CGTCCAAGCTCAATGCTAGGTCAGTGAAAGCATT
5. AGTCAAAGTTCACTAGGTATCGTAAGATTCAGCT
6. AGTCAAAGTTCACTAGGTAACGTCAGATTCAGCT
7. ACTATTAGTTGACTTAGAGCAACCGATACGACGC

Out:
[1.28, 0.873, 4.35, -0.576, 6.03, 6.81, 0.964]

For each of the items listed, what is its PBM binding z-score?
1. ACAGACAGGTGATGAAGGTAACGCAGGCTATCAT
2. GCTGCTAGGTCAGGTTGCTCAGCTAACGGGTACG
3. ATCTCCAGGTAAAGTTCAGTGAAAGATCGATAGA
4. ACTATTGGTTGACTTAGGGCAACCGATACGACGC
5. GCTGCTAGGGCAACTGATGGTCAGCTAAAGCTCG
6. AGAATGAGGATACCAAAGATCAGGGAAACGCTTG
7. CCTGCTAGGTCATGGTCGGCTAATCTACAGTATG

Out:
1. 0.871
2. 0.32
3. 1.2
4. 0.718
5. -0.394
6. 0.826
7. 2.32

For each of the items listed, what is its PBM binding z-score?
1. ACCTACGGGTCAACGAGGTTATAGCACGCGTATA
2. CTTACTGGGCCAAAAAGGTCATTGATGCCGATAA
3. CCTTACGGGTGAAGGTTATAGCACGGGTGGTACG
4. CCGGCTGGGGCAAGGTTACCATAACGCACAGCCA
5. CGTCCAAGGTCAGCAGGTTAGTGAAAGCGACGTG
6. ACTCGTTGGTCAGCTGAGGTCACACACAATTCGG

Out:
1. 4.44
2. 5.05
3. 1.09
4. 1.04
5. 2.77
6. 1.26

For each of the items listed, what is its PBM binding z-score?
1. GGAACGAGGGCAAAGTTGATGGCATCTGTCGACG
2. TCATATGGGTAAAGGTGAAAGTCGAACGATATGA
3. GCTTGTAGATCAATGTTAAGAAAGACTAAGCTAA

Out:
6.37
5.17
-0.00589
